- assay-protocol: in vitro
- recorded-conditions: mouse, RAW264.7 cells, Cell viability (Fig. S2e), RAW264.7 (48h), XQ2 0.31 μM
Square brackets hold non-standard residues; d marks the D form. Peptide text beside a SMILES is read from it.
outcome-measure: viability at 48 h, 0.31 µM (%)

compound	value-observed
CC(C)C[C@@H]1NC(=O)[C@H](CCCNC(=N)N)NC(=O)[C@H](C(C)C)NC(=O)[C@@H]2CCCN2C(=O)[C@@H](Cc2ccccc2)NC(=O)[C@H](CC(C)C)NC(=O)[C@H](CCCNC(=N)N)NC(=O)[C@H](C(C)C)NC(=O)[C@H](C)NC(=O)[C@@H](Cc2ccccc2)NC1=O [XQ2, Cyclo (LfAVRLfPVR)] (cyclo(L[dF]AVRL[dF]PVR))	102

###

- assay-protocol: in vitro
- recorded-conditions: human, THP1 cells, Cell viability (Fig. S7a)
Square brackets hold non-standard residues; d marks the D form. Peptide text beside a SMILES is read from it.

compound	display-unit	viability at 48 h, 25 µM
CC(C)C[C@@H]1NC(=O)[C@H](CCCNC(=N)N)NC(=O)[C@H](C(C)C)NC(=O)[C@@H]2CCCN2C(=O)[C@@H](Cc2ccccc2)NC(=O)[C@H](CC(C)C)NC(=O)[C@H](CCCNC(=N)N)NC(=O)[C@H]([C@@H](C)O)NC(=O)[C@H](C)NC(=O)[C@@H](Cc2ccccc2)NC1=O [XQ2B] (cyclo([dF]ATRL[dF]PVRL))	%	104

###

- target-under-test: recombinant human cGAS enzyme (hcGAS-ΔN, residues 147–522) (Homo sapiens)
- Construct: N-terminally truncated human cGAS (hcGAS-ΔN, residues 147–522); 6xHis-SUMO (N, cleaved yes); made in house; host or cells: Escherichia coli BL21 (DE3)
- Sequence (Q8N884 147-522, stated change not applied): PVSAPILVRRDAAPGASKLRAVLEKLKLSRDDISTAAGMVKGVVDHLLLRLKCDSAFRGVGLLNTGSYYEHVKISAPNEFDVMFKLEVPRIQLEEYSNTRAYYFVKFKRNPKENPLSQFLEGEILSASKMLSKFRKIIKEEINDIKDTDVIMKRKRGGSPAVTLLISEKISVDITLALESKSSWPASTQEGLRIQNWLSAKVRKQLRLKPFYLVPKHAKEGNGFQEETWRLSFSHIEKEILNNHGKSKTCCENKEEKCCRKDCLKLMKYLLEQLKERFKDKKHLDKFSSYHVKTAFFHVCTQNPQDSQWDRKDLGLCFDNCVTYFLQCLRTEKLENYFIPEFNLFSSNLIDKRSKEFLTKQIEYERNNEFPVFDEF
- assay-protocol: RNA-based fluorescent biosensor assay of cGAS activity (2',3'-cGAMP formation), in vitro screening
- Format: biochemical
- recorded-conditions: peptides screened at 20 μM; Supplementary Table 1 / Fig. S5b; read-out: Inhibition %
Square brackets hold non-standard residues; d marks the D form. Peptide text beside a SMILES is read from it. Hyp = O=C(O)[C@@H]1C[C@@H](O)CN1

compound	display-unit	inhibition at 20 µM
CC(C)C[C@@H]1NC(=O)[C@H](CCCNC(=N)N)NC(=O)[C@H](C(C)C)NC(=O)[C@@H]2CCCN2C(=O)[C@@H](Cc2ccccc2)NC(=O)[C@H](Cc2c[nH]cn2)NC(=O)[C@H](CC(=O)O)NC(=O)[C@H]([C@@H](C)O)NC(=O)[C@@H]2CCCN2C(=O)[C@@H](Cc2ccccc2)NC1=O [XQ67, Cyclo (LfPTDHfPVR)] (cyclo(DH[dF]PVRL[dF]PT))	%	0
CC(C)C[C@@H]1NC(=O)[C@H](CCCNC(=N)N)NC(=O)[C@@H]2CCCN2C(=O)[C@@H](Cc2ccccc2)NC(=O)[C@H](CCCNC(=N)N)NC(=O)[C@H](C(C)C)NC(=O)[C@@H]2CCCN2C(=O)[C@@H](Cc2ccccc2)NC1=O [XQ25, Cyclo (fPVRfPRL)] (cyclo(L[dF]PVR[dF]PR))	%	0
CC(C)C[C@@H]1NC(=O)[C@H](CCCNC(=N)N)NC(=O)[C@H](C(C)C)NC(=O)[C@@H]2C[C@@H](O)CN2C(=O)[C@@H](Cc2ccccc2)NC(=O)[C@H](CC(C)C)NC(=O)[C@H](CCCNC(=N)N)NC(=O)[C@H](C(C)C)NC(=O)[C@@H]2CCCN2C(=O)[C@@H](Cc2ccccc2)NC1=O [XQ6, Cyclo (LfPVRLf(Hyp)VR)] (cyclo([Hyp]VRL[dF]PVRL[dF]))	%	32

###

- assay-protocol: in vitro
- recorded-conditions: human, THP1 cells, Cell viability (Fig. S7a)
Square brackets hold non-standard residues; d marks the D form. Peptide text beside a SMILES is read from it.

molecule	display-unit	viability at 48 h, 50 µM
CC(C)C[C@@H]1NC(=O)[C@H](CCCNC(=N)N)NC(=O)[C@H](C(C)C)NC(=O)[C@@H]2CCCN2C(=O)[C@@H](Cc2ccccc2)NC(=O)[C@H](CC(C)C)NC(=O)[C@H](CCCNC(=N)N)NC(=O)[C@H]([C@@H](C)O)NC(=O)[C@H](C)NC(=O)[C@@H](Cc2ccccc2)NC1=O [XQ2B] (cyclo([dF]ATRL[dF]PVRL))	%	68.2

###

- assay-protocol: Pharmacokinetics after intravenous administration
- recorded-conditions: C57BL/6, mouse, whole blood, 10 mg/kg
Square brackets hold non-standard residues; d marks the D form. Peptide text beside a SMILES is read from it.

compound	AUC(0-t), µg·h/mL
CC(C)C[C@@H]1NC(=O)[C@H](CCCNC(=N)N)NC(=O)[C@H](C(C)C)NC(=O)[C@@H]2CCCN2C(=O)[C@@H](Cc2ccccc2)NC(=O)[C@H](CC(C)C)NC(=O)[C@H](CCCNC(=N)N)NC(=O)[C@H]([C@@H](C)O)NC(=O)[C@H](C)NC(=O)[C@@H](Cc2ccccc2)NC1=O [XQ2B] (cyclo([dF]ATRL[dF]PVRL))	135

###

- assay-protocol: Cell viability (CCK-8), cytotoxicity
- recorded-conditions: human, THP1 cells, Cell viability (Fig. S2e), THP1 (48h), XQ2 0.31 μM
Square brackets hold non-standard residues; d marks the D form. Peptide text beside a SMILES is read from it.

compound	display-unit	viability at 48 h, 0.31 µM
CC(C)C[C@@H]1NC(=O)[C@H](CCCNC(=N)N)NC(=O)[C@H](C(C)C)NC(=O)[C@@H]2CCCN2C(=O)[C@@H](Cc2ccccc2)NC(=O)[C@H](CC(C)C)NC(=O)[C@H](CCCNC(=N)N)NC(=O)[C@H](C(C)C)NC(=O)[C@H](C)NC(=O)[C@@H](Cc2ccccc2)NC1=O [XQ2, Cyclo (LfAVRLfPVR)] (cyclo(L[dF]AVRL[dF]PVR))	%	103

###

- assay-protocol: Pharmacokinetics after intravenous administration
- recorded-conditions: C57BL/6, mouse, whole blood, 10 mg/kg
Square brackets hold non-standard residues; d marks the D form. Peptide text beside a SMILES is read from it.

compound	Tmax
CC(C)C[C@@H]1NC(=O)[C@H](CCCNC(=N)N)NC(=O)[C@H](C(C)C)NC(=O)[C@@H]2CCCN2C(=O)[C@@H](Cc2ccccc2)NC(=O)[C@H](CC(C)C)NC(=O)[C@H](CCCNC(=N)N)NC(=O)[C@H]([C@@H](C)O)NC(=O)[C@H](C)NC(=O)[C@@H](Cc2ccccc2)NC1=O [XQ2B] (cyclo([dF]ATRL[dF]PVRL))	4.98 min

###

// reported remaining activity at 20 µM per item
- target-under-test: recombinant human cGAS enzyme (hcGAS-ΔN, residues 147–522) (Homo sapiens)
- Construct: N-terminally truncated human cGAS (hcGAS-ΔN, residues 147–522); 6xHis-SUMO (N, cleaved yes); made in house; host or cells: Escherichia coli BL21 (DE3)
- assay-protocol: RNA-based fluorescent biosensor assay of cGAS activity (2',3'-cGAMP formation), in vitro screening
- Type: biochemical
- recorded-conditions: 20 μM; replicate values; read-out: Remaining activity (%), Fig. 1a source data
Square brackets hold non-standard residues; d marks the D form. Peptide text beside a SMILES is read from it. Hyp = O=C(O)[C@@H]1C[C@@H](O)CN1

molecule	remaining activity at 20 µM
CC(C)C[C@@H]1NC(=O)[C@H](CCCNC(=N)N)NC(=O)[C@H](C(C)C)NC(=O)[C@@H]2C[C@@H](O)CN2C(=O)[C@@H](Cc2ccccc2)NC(=O)[C@H](CC(C)C)NC(=O)[C@H](CCCNC(=N)N)NC(=O)[C@H](C(C)C)NC(=O)[C@@H]2CCCN2C(=O)[C@@H](Cc2ccccc2)NC1=O [XQ6, Cyclo (LfPVRLf(Hyp)VR)] (cyclo([Hyp]VRL[dF]PVRL[dF]))	66.6%
CC(C)C[C@@H]1NC(=O)[C@H](CCCNC(=N)N)NC(=O)[C@H](C(C)C)NC(=O)[C@@H]2CCCN2C(=O)[C@@H](Cc2ccccc2)NC(=O)[C@H](CC(C)C)NC(=O)[C@H](CCCNC(=N)N)NC(=O)[C@H](C)NC(=O)[C@@H]2CCCN2C(=O)[C@@H](Cc2ccccc2)NC1=O [XQ3, Cyclo (LfPARLfPVR)] (cyclo(ARL[dF]PVRL[dF]P))	67.1%
CC(C)C[C@@H]1NC(=O)[C@H](CCCNC(=N)N)NC(=O)[C@H](C)NC(=O)[C@@H]2CCCN2C(=O)[C@@H](Cc2ccccc2)NC(=O)[C@H](C)NC(=O)[C@H](CCCNC(=N)N)NC(=O)[C@H](C(C)C)NC(=O)[C@@H]2CCCN2C(=O)[C@@H](Cc2ccccc2)NC1=O [XQ13, Cyclo (AfPARLfPVR)] (cyclo(ARL[dF]PVRA[dF]P))	93.4%
